Entry source: BindingDB's records for patent US20230286970

Assayed System: Histone deacetylase 9 (Homo sapiens, UniProt Q9UKV0)
Sequence (Q9UKV0 whole entry): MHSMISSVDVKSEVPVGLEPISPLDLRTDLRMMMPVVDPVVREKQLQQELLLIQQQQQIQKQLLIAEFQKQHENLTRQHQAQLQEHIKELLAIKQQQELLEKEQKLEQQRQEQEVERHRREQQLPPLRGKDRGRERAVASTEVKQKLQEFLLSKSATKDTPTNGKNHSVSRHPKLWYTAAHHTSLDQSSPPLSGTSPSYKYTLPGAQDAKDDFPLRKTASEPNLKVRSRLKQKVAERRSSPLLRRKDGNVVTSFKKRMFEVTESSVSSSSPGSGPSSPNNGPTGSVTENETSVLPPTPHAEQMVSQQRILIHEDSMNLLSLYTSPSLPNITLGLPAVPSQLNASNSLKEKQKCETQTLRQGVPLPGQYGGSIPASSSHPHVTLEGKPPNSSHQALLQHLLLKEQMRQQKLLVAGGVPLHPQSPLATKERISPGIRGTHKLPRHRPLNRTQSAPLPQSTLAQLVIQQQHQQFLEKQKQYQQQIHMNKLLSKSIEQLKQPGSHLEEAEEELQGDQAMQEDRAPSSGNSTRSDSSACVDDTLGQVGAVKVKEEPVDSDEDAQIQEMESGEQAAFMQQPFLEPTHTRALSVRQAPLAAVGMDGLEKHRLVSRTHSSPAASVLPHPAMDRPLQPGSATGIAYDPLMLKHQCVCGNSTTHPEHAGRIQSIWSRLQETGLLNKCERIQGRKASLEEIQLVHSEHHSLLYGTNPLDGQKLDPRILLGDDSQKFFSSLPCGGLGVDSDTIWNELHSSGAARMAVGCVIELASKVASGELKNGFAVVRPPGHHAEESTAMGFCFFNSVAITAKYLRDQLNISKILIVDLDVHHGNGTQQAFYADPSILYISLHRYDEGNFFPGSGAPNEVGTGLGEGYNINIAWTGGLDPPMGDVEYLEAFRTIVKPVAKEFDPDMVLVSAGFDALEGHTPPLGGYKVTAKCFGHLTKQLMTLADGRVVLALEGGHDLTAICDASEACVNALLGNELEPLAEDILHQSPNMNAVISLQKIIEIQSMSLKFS
Value Type: IC50

Value wanted: IC50 (Histone deacetylase 9 (Homo sapiens, UniProt Q9UKV0)) of entry Nc1ccc(-c2cn(Cc3ccc(-c4nnc(C(F)F)o4)c(F)c3)nn2)cn1 [US20230286970, Compound 15]
> 30 µM

---

Below: a set of entries, each annotated with reported IC50.
Assayed System: Histone deacetylase 5 (Homo sapiens)
Sequence (Q9UQL6 whole entry): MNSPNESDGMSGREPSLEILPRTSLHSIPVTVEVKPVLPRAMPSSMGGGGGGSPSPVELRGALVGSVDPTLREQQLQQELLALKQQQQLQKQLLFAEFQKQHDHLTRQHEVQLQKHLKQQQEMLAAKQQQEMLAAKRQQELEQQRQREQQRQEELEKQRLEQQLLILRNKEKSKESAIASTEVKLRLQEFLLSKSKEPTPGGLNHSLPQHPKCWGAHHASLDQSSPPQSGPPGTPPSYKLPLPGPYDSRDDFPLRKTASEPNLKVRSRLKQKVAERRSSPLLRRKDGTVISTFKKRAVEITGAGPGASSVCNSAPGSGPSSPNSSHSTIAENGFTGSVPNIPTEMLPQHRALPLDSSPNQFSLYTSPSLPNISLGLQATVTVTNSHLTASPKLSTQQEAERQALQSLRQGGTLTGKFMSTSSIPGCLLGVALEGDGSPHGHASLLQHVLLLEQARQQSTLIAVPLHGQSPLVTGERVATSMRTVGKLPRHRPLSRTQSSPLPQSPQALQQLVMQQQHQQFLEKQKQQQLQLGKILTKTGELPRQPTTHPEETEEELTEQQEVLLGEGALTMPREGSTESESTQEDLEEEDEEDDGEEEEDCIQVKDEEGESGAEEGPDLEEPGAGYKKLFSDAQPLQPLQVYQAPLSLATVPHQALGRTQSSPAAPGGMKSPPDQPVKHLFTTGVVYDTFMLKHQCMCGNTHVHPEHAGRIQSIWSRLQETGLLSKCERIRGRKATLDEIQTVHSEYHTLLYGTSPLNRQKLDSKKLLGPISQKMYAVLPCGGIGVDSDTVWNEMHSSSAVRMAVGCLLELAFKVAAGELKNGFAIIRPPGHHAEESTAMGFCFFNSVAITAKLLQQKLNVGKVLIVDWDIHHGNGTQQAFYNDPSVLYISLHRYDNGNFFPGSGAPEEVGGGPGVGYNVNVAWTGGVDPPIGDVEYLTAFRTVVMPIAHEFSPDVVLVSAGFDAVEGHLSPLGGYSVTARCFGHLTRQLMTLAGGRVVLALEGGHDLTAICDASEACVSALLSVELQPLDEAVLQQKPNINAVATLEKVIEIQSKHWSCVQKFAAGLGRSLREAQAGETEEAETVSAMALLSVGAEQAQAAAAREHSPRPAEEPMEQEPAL

>>> result("Nc1nc2ccc(-c3cn(Cc4ccc(-c5nnc(C(F)F)o5)cc4)nn3)cc2s1")
"> 30 µM"

Please look at the following molecule next.
Please state recorded IC50 (tested on Histone deacetylase 5 (Homo sapiens)) of Nc1ccc(-c2cn(Cc3ccc(-c4nnc(C(F)F)o4)c(F)c3)nn2)cn1
> 30 µM
